Test system: SCC-9;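 further: Read-out is a cell viability assay, with values giving inhibition of cell growth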
assayMethodText: cells
Assay type: functional, cell-based, Homo sapiens
conditionSummary: Homo sapiens, SCC-9
Description: SANGER: Inhibition of human SCC-9 cell growth in a cell viability assay.
Listed here are compounds together with their documented IC50.

# count of solved cases: 4
[[record]]
compound = "COc1ccc(-c2ccc3c(N4CCOC[C@@H]4C)nc(N4CCOC[C@@H]4C)nc3n2)cc1CO"
systemtested = "SCC-9"
measuredresult = "> 2000 nM"

[[record]]
compound = "CC(=O)O[C@@H]1[C@@H](OC(C)=O)[C@@H](O)[C@H](Oc2c(-c3ccc(O)cc3)oc3cc(O)cc(O)c3c2=O)O[C@H]1C"
systemtested = "SCC-9"
measuredresult = "> 10000 nM"

[[record]]
compound = "COc1cc([C@@H]2c3cc4c(cc3[C@@H](O[C@@H]3O[C@@H]5CO[C@@H](C)O[C@H]5[C@H](O)[C@H]3O)[C@H]3COC(=O)[C@H]23)OCO4)cc(OC)c1O [ETOPOSIDE]"
systemtested = "SCC-9"
measuredresult = "850 nM"

[[record]]
compound = "CN(C)C/C=C/C(=O)Nc1cc2c(Nc3ccc(F)c(Cl)c3)ncnc2cc1O[C@H]1CCOC1"
systemtested = "SCC-9"
measuredresult = "> 500 nM"


Prompt: Item O=C(c1cc(Cc2n[nH]c(=O)c3ccccc23)ccc1F)N1CCN(C(=O)C2CC2)CC1 has what recorded IC50?
Response: > 5000 nM

Prompt: Could you do the same for COc1cc(F)c(F)c(Nc2ccc(I)cc2F)c1NS(=O)(=O)C1(CC(O)CO)CC1 (configuration not stated) , please?
Response: > 5000 nM

Prompt: Could you do the same for CCC1=C[C@@H]2CN(C1)Cc1c([nH]c3ccccc13)[C@@](C(=O)OC)(c1cc3c(cc1OC)N(C)[C@H]1[C@@](O)(C(=O)OC)[C@H](OC(C)=O)[C@]4(CC)C=CCN5CC[C@]31[C@@H]54)C2 , please?
Response: 2.05 nM
